Just for reference, paper PMC4552634 is where these values come from.

Test system: P. falciparum stage V gametocytes
Set-up: BacTiter-Glo ATP luminescence viability of purified stage V gametocytes in 384-well plates, per cent inhibition versus DMSO
Settings: 48 h, 5 µM; inhibitor
About 3,200 (25%) of roughly 13,000 compounds showed an effect of 50% or more. The list shows a part of the results.
Hi there, I'd appreciate the recorded % Inhibition for every entry that follows.
One number for each entry, in %.

| Molecule | Numeric readout |
| --- | --- |
| Oc1ccccc1CCNCC1CCc2ccccc2C1 (stereo not shown) | -11.67 |
| Cc1[nH]c2ccccc2c1C1=CCN(CC2CC2C(=O)c2ccccc2)CC1 (stereo not shown) | 56.06 |
| NC(N)=NN=Cc1ccc2ccc3ccccc3c2c1 | 101.6 |

// batch mode: one % Inhibition value per listed entry
1. COc1cccc(C(=O)C2CC2CN(C)CCC(O)c2ccc(Cl)c(Cl)c2)c1 (stereo not shown)
2. CC1CC1C(=O)NC1CCN(CC2(c3ccccc3)CCCCC2)CC1 (stereo not shown)

Marked response:
[24.64, 61.7]

// batch mode: one % Inhibition value per listed entry
1. O=C(CCc1ccco1)NC1CCN(CC2(c3ccc(Cl)cc3)CCC2)CC1
2. O=C(NC1CCN(Cc2ccccc2)CC1)c1ccc(-c2nc3cc(Cl)c(F)cc3[nH]2)s1
3. CCCCN1CCN(c2cc(NS(=O)(=O)c3cccc(C(=O)Nc4ccc(C(F)(F)F)cc4)c3)ccc2OC)CC1
4. COc1cccc(C(=O)C2CC2CN2CC=C(c3c[nH]c4cccc(Br)c34)CC2)c1 (stereo not shown)
5. Cc1ccc2c(C3=CCN(CCCCC4(C)C(=O)Nc5ccccc54)CC3)c(C)[nH]c2c1 (stereo not shown)
6. Cc1[nH]c2ccccc2c1C1=CCN(CCCCC2(C)C(=O)Nc3cccc(F)c32)CC1 (stereo not shown)

Marked response:
[42.25, 2.226, -16.75, -17.42, -63.83, 52.59]
